systemName: GLYT1 (Rattus norvegicus, UniProt P28572)
Sequence (P28572 whole entry): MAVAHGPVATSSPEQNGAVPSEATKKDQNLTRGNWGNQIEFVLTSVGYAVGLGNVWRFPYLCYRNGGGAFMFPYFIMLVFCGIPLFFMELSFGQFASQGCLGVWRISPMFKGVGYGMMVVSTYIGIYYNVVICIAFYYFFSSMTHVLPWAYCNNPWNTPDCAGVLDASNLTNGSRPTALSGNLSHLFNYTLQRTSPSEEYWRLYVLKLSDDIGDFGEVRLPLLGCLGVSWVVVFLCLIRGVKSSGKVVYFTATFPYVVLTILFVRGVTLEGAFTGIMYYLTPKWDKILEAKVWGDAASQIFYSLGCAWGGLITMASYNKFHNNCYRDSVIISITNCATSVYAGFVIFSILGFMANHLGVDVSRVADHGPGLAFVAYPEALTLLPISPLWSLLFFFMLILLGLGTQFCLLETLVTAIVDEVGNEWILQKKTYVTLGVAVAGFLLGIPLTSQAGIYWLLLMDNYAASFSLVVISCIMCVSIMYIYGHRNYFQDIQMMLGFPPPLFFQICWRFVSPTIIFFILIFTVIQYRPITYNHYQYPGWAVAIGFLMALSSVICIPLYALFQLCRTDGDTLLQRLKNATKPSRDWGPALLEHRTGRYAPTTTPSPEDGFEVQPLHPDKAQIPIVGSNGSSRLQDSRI
testName: ex vivo 3H-glycine uptake by peripheral blood cells of orally dosed rats vs free plasma concentration
endpoint: EC50 (nM)
Field: numeric (nM). Do not append units.

stdin: Entry C[C@H](Oc1ccc(S(C)(=O)=O)cc1C(=O)N1CCN(c2ncc(C(F)(F)F)cc2F)CC1)C(F)(F)F has what EC50?
stdout: 2
